# Test system: MS2 coat protein
# EXPERIMENT DESCRIPTION: apparent KD of MS2 coat protein; higher = weaker reporter binding
# STATED CONDITIONS: Eterna round: R107; input ligand: theophylline 20 uM

- QUERY SEQUENCE: "AGGUGCAAAGCACCCUCUGGCCCUCGUGAAGGAGCGCUCGAAAGAGCAGGUAGGUCGCAUGAGGAUCACCCAUGUGAGCCAGAGA [Arg A Exc A v1]"
  UNITS OF MEASURE: "nM"
  apparent KD of MS2 coat protein: 83.5
- QUERY SEQUENCE: "GCCAUCGGCGGAAGCCGAUGGUAUACGGAAGGAGCGCACGAAAGUGCAGGUAGGUCGCUGAACAUGAGGAUCACCCAUGUAAUAA [#28 Same State - Arginine A]"
  UNITS OF MEASURE: "nM"
  apparent KD of MS2 coat protein: 36.4
- QUERY SEQUENCE: "GUUAUUAGAAAACUAAUAACAGUGGGUGAACGAGGACCGGUACGGCCGCCACUCGGACAUGAGGAUCACCCAUGUCCAUGUGAAA [AstrosExyTryA#4]"
  UNITS OF MEASURE: "nM"
  apparent KD of MS2 coat protein: 15.8
- QUERY SEQUENCE: "GGGUACAUCGCGGCCGCCACUGAUGUAAAUACAUGAGGAUCACCCAUGUCGAUGGAGACAUCGGCCAGGACCGGGUGAUGUACCG"
  UNITS OF MEASURE: "nM"
  apparent KD of MS2 coat protein: 24.1
- QUERY SEQUENCE: "AGCAUGUUAUCAGAUACCAGACAUCUUUUUUUACGUAUUACAUGAGGAUCACCCAUGUUGGUCCCUUGGCAGCUGAAAUAUUUCA [JR_Nu_SSTheophyB_Sub022]"
  UNITS OF MEASURE: "nM"
  apparent KD of MS2 coat protein: 269
- QUERY SEQUENCE: "UUAAUCUAUGAAGAAAACUUUAUAGCAGAAGGAGCGUGAUAAAACACAGGUAGGUCGCUGAAGGGAACAUGAGGAUCACCCAUGU [AstrosSSArgA#19]"
  UNITS OF MEASURE: "nM"
  apparent KD of MS2 coat protein: 36.7

====

# Tested on: K4 kissing-loop RNA reporter;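 further: bound reporter read as fluorescence of individual clusters on recovered sequencing chips by microscopy, with normalized cluster intensities fitted with a binding model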
# EXPERIMENT DESCRIPTION: apparent KD of K4 kissing-loop reporter; higher = weaker reporter binding
# STATED CONDITIONS: Eterna round: R107; input ligand: theophylline 20 uM
Values of apparent KD of K4 kissing-loop reporter greater than or equal to 0.2 µM map to t; values below map to f.

- QUERY SEQUENCE: "AAUACUAUCAGAAGGAGCGUGGAAUAUUCAUCUGUAUCUAAUACGAGUGAUGUUCGUAAUUCACAGGUAGGUCGCUGAUUAAUAC [whbob_Ex_Arginine_B_2th158]"
  EXPERIMENTAL SYSTEM: "K4 kissing-loop RNA reporter"
  CATEGORY LABEL: "t"
- QUERY SEQUENCE: "UGACAUUGCUCAGAUACCAGACAUGAGCAUCAGCCAUGUGCCAAACGUACAAUAAUAAAUGUCCCUUGGCAGCUGAGCAAUGUCU [TheoBX 14]"
  EXPERIMENTAL SYSTEM: "K4 kissing-loop RNA reporter"
  CATEGORY LABEL: "f"
- QUERY SEQUENCE: "CCUAUCUCUUACGAUACCAGUCAAUGAUAUUUUAUCAAUGCCCUCACCGAGUGAUGUUCGGACCCUUGGCAGCGUCUGGGAUAGG [pvppimullin]"
  EXPERIMENTAL SYSTEM: "K4 kissing-loop RNA reporter"
  CATEGORY LABEL: "f"
- QUERY SEQUENCE: "CCGCCGGUCGGAAGGAGCGCACGCCAGAGUGAUGUUCUGGCGCAGGCAUUUAGUGCCCGCGUGCAGGUAGGUCGCCGAUUCUGGC [Arlaaa]"
  EXPERIMENTAL SYSTEM: "K4 kissing-loop RNA reporter"
  CATEGORY LABEL: "t"
- QUERY SEQUENCE: "UGUCAUUGGUCUGAUACCAGUUGGGACGAAUACGUCCAACUGGAGUGAUGUUCCUAAAACAACCCUUGGCAGCAGACCGAUGACU [TheoBS 13 #SwitchBubble 13 #StaticStem]"
  EXPERIMENTAL SYSTEM: "K4 kissing-loop RNA reporter"
  CATEGORY LABEL: "t"
- QUERY SEQUENCE: "AAGACUUGCAUCGAUACCAGCCCAGUGAUGUUGGGCUGCUCUCCAUGGGUGCCAGACACGGGCCCUUGGCAGCGAGGUAAGGCCC [Soveri]"
  EXPERIMENTAL SYSTEM: "K4 kissing-loop RNA reporter"
  CATEGORY LABEL: "f"
- QUERY SEQUENCE: "AAGAAGAAUGGAAGGAGCGAGCAGAUAUAACCAGUGAUGUUGGAAAGCCUUAUUGCUUAAGCUCAGGUAGGUCGCCAAGAAAAGA [whbob_Ex_Arginine_B_2t151]"
  EXPERIMENTAL SYSTEM: "K4 kissing-loop RNA reporter"
  CATEGORY LABEL: "f"
- QUERY SEQUENCE: "GGGAGUAGUGCGGCCGCCACUGAGAAAGAAGAAGAAUAUAGUGAUGUUAUAUAGGAAUUAAAGAACAGGACCGGGCAUUAGAUUU [SSTRyptB.O]"
  EXPERIMENTAL SYSTEM: "K4 kissing-loop RNA reporter"
  CATEGORY LABEL: "f"
- QUERY SEQUENCE: "UUUAUGAUGUCGGCCGCCACUGGAUUAAUAUGUGUGUAAUCUAGUUCUGAGUGAUGUUUAGAGUCCAGGACCGGGACAUUUGUUA [#11 K4 Tryptophan B Exclusion]"
  EXPERIMENTAL SYSTEM: "K4 kissing-loop RNA reporter"
  CATEGORY LABEL: "t"
- QUERY SEQUENCE: "AGUAGAGCAUCAGAUACCAGACUGAACUGAUGGUAAGGAGUGAUGUUCCUUAAUCAGCUAGUCCCUUGGCAGCUGAUAAUAGUCA [Theo B SS t3]"
  EXPERIMENTAL SYSTEM: "K4 kissing-loop RNA reporter"
  CATEGORY LABEL: "f"
- QUERY SEQUENCE: "AUAUCGGUUGAGAGUGAUGUUCCUUGUGUUCGAGGACCGGUACGGCCGCCACUCGGGUAGAAAAUAAAAGAUGUGUUUGAUUUUU [BDazzled - #14 SS Tryptophan A]"
  EXPERIMENTAL SYSTEM: "K4 kissing-loop RNA reporter"
  CATEGORY LABEL: "t"
- QUERY SEQUENCE: "CGUGAGUGCCGUCAGUCAUCGGUCCAUGCACGAGGACCGGUACGGCCGCCACUCGAGCGUGGCAGUGAUGUUGCCAGCGCACUAA [KL-XTryp-A12]"
  EXPERIMENTAL SYSTEM: "K4 kissing-loop RNA reporter"
  CATEGORY LABEL: "f"
- QUERY SEQUENCE: "AUGUCUAAUACGGCCGCCACUCGAGCAGUGAUGUUGCUCAGUAAUGGUCAUCGUCGUACAUGCCCGAGGACCGGGUAUUGAUUUG [Remain]"
  EXPERIMENTAL SYSTEM: "K4 kissing-loop RNA reporter"
  CATEGORY LABEL: "f"
- QUERY SEQUENCE: "AUUUUUUUGUCAGGAUAUUAGUAUGGUUUUGGUUUGUUAGUGAUGUUGAUAUUUUGUUUAUGUAUUUAAGAAGGGAUUUAGCGGU [gyhhgumullin]"
  EXPERIMENTAL SYSTEM: "K4 kissing-loop RNA reporter"
  CATEGORY LABEL: "t"
- QUERY SEQUENCE: "CAGAACUUGUAUACAGGGUAUGUAAGAGAUACCAGUCAAAUUAAAGACCCUUGGCAGCUCAGGCGAGUGAUGUUCGCAGGCUAAC [Exclusion Theophylline A GF 18]"
  EXPERIMENTAL SYSTEM: "K4 kissing-loop RNA reporter"
  CATEGORY LABEL: "f"
- QUERY SEQUENCE: "AAAAUAAAUAGCAGUCAUGGAGUGAUGUUCCGAGGACCGGUACGGCCGCCACUCGACCAUCAUAAGAUGGAAUGGCGAGACUGCA [#SwitchBubble 22 #K4Early]"
  EXPERIMENTAL SYSTEM: "K4 kissing-loop RNA reporter"
  CATEGORY LABEL: "t"
- QUERY SEQUENCE: "GCAGGAUAGCGCGGUGCAGUGAUGUUGCACCGAGGACCGGUACGGCCGCCACUCGCUUAGAUAUCGUGUGAUGGGUAUGUCUAGA [theeternabot_exclusion_KL_Trp_A_8]"
  EXPERIMENTAL SYSTEM: "K4 kissing-loop RNA reporter"
  CATEGORY LABEL: "f"
- QUERY SEQUENCE: "AAUGUGCAGGGAAGGAGCGUAGUCCAGUGCUGUUGGAGUUAAAUACCAGUGAUGUUGGUUAUACAGGUAGGUCGCCCUAAAGCGC [whbob_Ex_Arginine_B_2th160]"
  EXPERIMENTAL SYSTEM: "K4 kissing-loop RNA reporter"
  CATEGORY LABEL: "t"
- QUERY SEQUENCE: "UAUACUAGACAAGAGAGAAUUCUCUCAAGAGAGGAUAUCCGAAUUCGGAGAAGGCUCUCUAAGUGAUGUUUGGAAUAGUCUAGAA [AK5 SS FMN A]"
  EXPERIMENTAL SYSTEM: "K4 kissing-loop RNA reporter"
  CATEGORY LABEL: "t"
- QUERY SEQUENCE: "UCUUUAGUAUAUGAUACCAGCAGUGAGAGACAGGAAGUAUAGUGAUGUUAUAUGAGAGAAUGCCCUUGGCAGCGUGUGCGGUGGG [SSTheophylB.T]"
  EXPERIMENTAL SYSTEM: "K4 kissing-loop RNA reporter"
  CATEGORY LABEL: "f"
- QUERY SEQUENCE: "GGAUAGGACAGAGGAUAUGGUAGCUAGGCAAGAAUAACUUGUCUAGCAUCCAUGAGGAGUGAUGUUCCAGAAGGCUGUCCUAUCG [FmnBX 5 - #SwitchBubble #StaticStem]"
  EXPERIMENTAL SYSTEM: "K4 kissing-loop RNA reporter"
  CATEGORY LABEL: "f"
- QUERY SEQUENCE: "CUCGAGUGAUGUUCGAUUAUGUAUACAGAUACCAGUGAAUUUUAACACCCUUGGCAGCUGGUAGAAUCAUUGUAAUUUUAACUAG [JR_ExcTheophyA_Sub001]"
  EXPERIMENTAL SYSTEM: "K4 kissing-loop RNA reporter"
  CATEGORY LABEL: "t"

Reference for the values: the supplement of paper PMC9170038
